molecular target: Beta-lactamase (Enterobacter cloacae) (UniProt P05364); experiment: Kcat against P99 beta-lactamase
Sequence (P05364 21-381 limits assumed): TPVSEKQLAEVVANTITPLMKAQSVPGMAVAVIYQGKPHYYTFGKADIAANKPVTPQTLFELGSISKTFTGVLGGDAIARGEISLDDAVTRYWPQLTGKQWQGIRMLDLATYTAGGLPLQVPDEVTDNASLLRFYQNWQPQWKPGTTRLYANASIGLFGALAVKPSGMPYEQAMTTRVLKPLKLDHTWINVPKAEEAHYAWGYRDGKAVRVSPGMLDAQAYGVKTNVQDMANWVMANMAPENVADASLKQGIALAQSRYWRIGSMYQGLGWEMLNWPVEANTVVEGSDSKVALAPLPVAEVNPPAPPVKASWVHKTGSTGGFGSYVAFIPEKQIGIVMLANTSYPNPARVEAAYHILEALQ
Sorting guide: entries reporting k cat beneath 20 s⁻¹ go in the T pile, the rest go in the F pile.

{"smi": "CC(=O)NCCCC[C@H](NC(C)=O)C(=O)N[C@@H](C)C(=O)O[C@H](C)C(=O)O", "tested-on": "Beta-lactamase (Enterobacter cloacae) (UniProt P05364)", "group": "F"}
{"smi": "C[C@@H](SC(=O)CNC(=O)Cc1ccccc1)C(=O)O", "tested-on": "Beta-lactamase (Enterobacter cloacae) (UniProt P05364)", "group": "F"}
{"smi": "C[C@@H](OC(=O)CNC(=O)Cc1ccccc1)C(=O)O", "tested-on": "Beta-lactamase (Enterobacter cloacae) (UniProt P05364)", "group": "F"}
{"smi": "C[C@H](NC(=O)Cc1ccccc1)C(=O)O[C@H](C)C(=O)O", "tested-on": "Beta-lactamase (Enterobacter cloacae) (UniProt P05364)", "group": "F"}
{"smi": "CC(=O)NCCCC[C@H](NC(C)=O)C(=O)NCC(=O)O[C@H](C)C(=O)O", "tested-on": "Beta-lactamase (Enterobacter cloacae) (UniProt P05364)", "group": "T"}
{"smi": "CC(=O)NCCCC[C@H](NC(C)=O)C(=O)NCC(=O)S[C@H](C)C(=O)O", "tested-on": "Beta-lactamase (Enterobacter cloacae) (UniProt P05364)", "group": "T"}

The measured values listed here are drawn from ChEMBL document CHEMBL1150988.
